Sourced from the supplement of paper PMC10567573

Reported protein stability index by item:
B1: SMARCE1 (parent)
chain: YHNSPAYLAYINAKSRAEAALEEE

- Variants of: B1
- testProtocol: protein stability index of a GFP-peptide fusion (GPS, HEK-293T) (PSI 1-6); higher = more stable;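 note: lentivirally expressed fusions sorted by FACS into six bins by GFP to DsRed ratio, PSI derived from sequencing read proportions per bin multiplied by bin number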
- setupConditions: c terminus: a fixed tail appended

YHNSPAYLAYINAKSVAEAALEEE
2.99
YHNSPAYLAYTNAKSRAEAALEEE
2.99
YHNSPAYLAYINAKSRAEAALEKE
2.05

## Input Would you mind telling me what protein stability index value was observed for YHNSPAYLAYINAKSRAEAGLEEE ?
## Output 3.01

## Input Name the recorded protein stability index for YHNSPAYLAYINAKSRDEAALEEE .
## Output 1.93

## Input Tell me the measured protein stability index of YCNSPAYLAYINAKSRAEAALEEE , please.
## Output 2.12

## Input Please report the recorded protein stability index for YHNSPAFLAYINAKSRAEAALEEE .
## Output 2.64

## Input Looking for the measured protein stability index of YHDSPAYLAYINAKSRAEAALEEE , can you help?
## Output 1.89

## Input Which protein stability index reading was recorded for the variant YHNSPAYNAYINAKSRAEAALEEE ?
## Output 3.65

## Input I have this variant here, YHNSPAYLAGINAKSRAEAALEEE , and I need its recorded protein stability index.
## Output 1.75
